# Read-out: MicroRNA 122 (MIR122), gene 406906
# PROTOCOL_SUMMARY: LTEA_HepaRG_MIR122: Life Technologies and Expression Analysis (LTEA) Assay for MicroRNA 122 (MIR122) using HepaRG (AID 2283516); further: the transcript read is the microRNA miR-122
# MEASUREMENT_CONTEXT: mRNA level, 48 h; actives raise or lower the signal
# Procedure: LTEA_HepaRG is a cell based, multiplexed-readout assay that uses HepaRG, a human liver cell line, with measurements taken at 48 hours after chemical dosing on a 96-well plate.LTEA_HepaRG_MIR122 is one of 102 assay component(s) measured in the LTEA HepaRG cell culture assay. It is a marker of MicroRNA.Data from the assay component LTEA_HepaRG_MIR122 was analyzed into 1 endpoint. […]
Calls of active or inactive are those of the source. How the source made its calls: active means hit-call score of the fitted dose curve at least 0.9, where 1 is the maximum; inactive means score below 0.9.
REPORTED_ENDPOINT: AC50

NC(=O)NO : inactive
CCC(C)(C)C(=O)O[C@H]1C[C@@H](C)C=C2C=C[C@H](C)[C@H](CC[C@@H]3C[C@@H](O)CC(=O)O3)[C@H]21 : inactive
Cc1[nH]cnc1C[C@H]1CCc2c(C)c3ccccc3n2C1=O : 14.1 µM (active)

====

# PROTOCOL_SUMMARY: BSK_3C_Proliferation: Cell Proliferation Assessment in the BioMAP Diversity Plus: 3C Assay (AID 2283006)
# MEASUREMENT_CONTEXT: primary human endothelial cells (HUVEC)
Active and inactive are the calls of the source. How the source made its calls: active means hit-call score of the fitted dose curve at least 0.9, where 1 is the maximum; inactive means score below 0.9.
Thanks in advance; please answer with one of these: Y (active), N (inactive)

For orientation, consider the following solved cases.
COC(=O)c1ccccc1O : N
O=C(O)c1cccc(Oc2ccccc2)c1 : N
O=C(O)CC(O)C(=O)O (stereo not drawn) : N

Challenge: For CC[C@H]1CC[C@H](NCc2cc3c(cc2OC)[C@H]2C[C@H]2C(=O)N3C)[C@H](c2ccccc2)N1 , which call appears in the assay record?
Response given: Y

Challenge: For C1=CCCC=CCCC=CCC1 , which call appears in the assay record?
Response given: N

Challenge: For On1ccccc1=S , which call appears in the assay record?
Response given: Y

Challenge: For CC(C)=CCC/C(C)=C\CO , which call appears in the assay record?
Response given: N

Challenge: For Clc1nc(Cl)c(Cl)c(Cl)c1Cl , which call appears in the assay record?
Response given: Y

====

# Read-out: adenosine kinase (ADK) gene, ADK (gene 132)
# PROTOCOL_SUMMARY: LTEA_HepaRG_ADK: Life Technologies and Expression Analysis (LTEA) Assay for adenosine kinase (ADK) gene using HepaRG (AID 2283471)
# MEASUREMENT_CONTEXT: mRNA level, 48 h; actives raise or lower the signal
Active and inactive are the calls of the source. Rule for the calls: active = hit-call score of the fitted dose curve at least 0.9, where 1 is the maximum; inactive = score below 0.9.
REPORTED_ENDPOINT: outcome

Cn1c(=O)cc(Oc2ccc(F)cc2F)c2cnc(NCC(C)(C)O)nc21 : inactive
CC1(C)C(=O)N(Br)C(=O)N1Br : inactive
COC(=O)c1c(Cl)c(Cl)c(C(=O)OC)c(Cl)c1Cl : inactive

====

# Read-out: Pro-epidermal growth factor (Homo sapiens)
# PROTOCOL_SUMMARY: LTEA_HepaRG_EGF: Life Technologies and Expression Analysis (LTEA) Assay for Epidermal growth factor (EGF) using HepaRG (AID 2283489)
# MEASUREMENT_CONTEXT: mRNA level, 48 h; actives raise or lower the signal
Activity calls are given as the source filed them. Rule for the calls: active = hit-call score of the fitted dose curve at least 0.9, where 1 is the maximum; inactive = score below 0.9.
REPORTED_ENDPOINT: outcome

// known answers, use as guide
COC(=O)CC(=O)OC : inactive
CC(O)CN(CCN(CC(C)O)CC(C)O)CC(C)O (stereo unspecified) : inactive
CN(C)c1ccc(N=NS(=O)(=O)O)cc1 : inactive
Nc1ccc(Nc2ccccc2)cc1 : inactive
O=C(OC[C@H]1O[C@@H](OC(=O)c2cc(O)c(O)c(OC(=O)c3cc(O)c(O)c(O)c3)c2)[C@H](OC(=O)c2cc(O)c(O)c(OC(=O)c3cc(O)c(O)c(O)c3)c2)[C@@H](OC(=O)c2cc(O)c(O)c(OC(=O)c3cc(O)c(O)c(O)c3)c2)[C@@H]1OC(=O)c1cc(O)c(O)c(OC(=O)c2cc(O)c(O)c(O)c2)c1)c1cc(O)c(O)c(OC(=O)c2cc(O)c(O)c(O)c2)c1 : inactive

Note: attention shifts to another entry.
Challenge: Return the recorded outcome value; entry: CCOC(=O)c1ccc(C2CCC(NC[C@H](O)COc3ccc(O)c(NS(C)(=O)=O)c3)CC2)cc1 (stereo partly specified)
Response given: inactive
